# MEASURED TARGET: UniProt:Q9BV23
# Sequence (Q9BV23 whole entry): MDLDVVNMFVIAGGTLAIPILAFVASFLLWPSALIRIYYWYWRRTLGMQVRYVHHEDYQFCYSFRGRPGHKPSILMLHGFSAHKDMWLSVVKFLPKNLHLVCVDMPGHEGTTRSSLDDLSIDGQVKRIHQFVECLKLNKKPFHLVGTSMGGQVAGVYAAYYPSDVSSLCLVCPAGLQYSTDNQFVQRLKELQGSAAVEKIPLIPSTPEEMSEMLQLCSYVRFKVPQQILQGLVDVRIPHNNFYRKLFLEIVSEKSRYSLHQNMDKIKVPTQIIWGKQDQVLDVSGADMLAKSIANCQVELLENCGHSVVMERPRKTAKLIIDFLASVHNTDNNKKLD
# PROTOCOL TEXT: Inhibition of human ABHD6 expressed in HEK293 cell homogenates at 10 uM pre-incubated for 30 mins in presence of [1,2,3-3H]2-OG by liquid scintillation spectroscopy
# Type: cell-free
EXPERIMENTAL ENDPOINT: inhibition (%)

1. CC(C)c1ccc(C(=O)C2CCN(C(=O)c3ccc(F)c(O)c3)CC2)cc1 : 11
2. CCCCc1ccc(C(=O)C2CCN(C(=O)c3ccc(F)c(O)c3)CC2)cc1 : 16
3. CCCCc1ccc(C(=O)C2CCN(C(=O)c3cc(O)ccc3F)CC2)cc1 : 0
4. CC(C)c1ccc(C(=O)C2CCN(C(=O)c3cc(O)ccc3F)CC2)cc1 : 0
